Values compiled from patent US4985558A.

- Test system: spontaneously hypertensive rats (SHR)
- study-conditions: rat, in vivo, ip, 100 mg/kg
outcome-measure: Systolic Blood Pressure 60 minutes after administration (mmHg)
Quick note: give the figure in mmHg, leave out the unit.

Previously resolved entries follow.
>>> obs_value("CC1=C(C(=O)OCc2cccc(C)n2)C(C2=COCCO2)C(C(=O)OCc2cccc(C)n2)=C(C)N1")
204
>>> obs_value("CC1=C(C(=O)OCc2ccncc2)C(C2=C(C)SCCS2)C(C(=O)OCc2ccncc2)=C(C)N1")
187
>>> obs_value("CC1=C(C(=O)OCc2cccnc2)C(C2=CSCCS2)C(C(=O)OCc2cccnc2)=C(C)N1")
189
>>> obs_value("CC1=C(C(=O)OCc2ccccn2)C(C2=CSCCS2)C(C(=O)OCc2ccccn2)=C(C)N1")
191

Proceed to the following item.
Asked: Look at this compound and give its reported Systolic Blood Pressure 60 minutes after administration. "CCc1ccc(COC(=O)C2=C(C)NC(C)=C(C(=O)OCc3ccc(CC)cn3)C2C2=COCCO2)nc1"
Given back: 187

---

- Tested on: spontaneously hypertensive rats (SHR)
- study-conditions: rat, in vivo, ip, 100 mg/kg
outcome-measure: Blood pressure change (mmHg)
Reply with just the number (in mmHg).

Examples with answers:
>>> obs_value("CC1=C(C(=O)OCc2cccnc2)C(C2=CSCCS2)C(C(=O)OCc2cccnc2)=C(C)N1")
-38
>>> obs_value("CC1=C(C(=O)OCc2ccccn2)C(C2=CSCCS2)C(C(=O)OCc2ccccn2)=C(C)N1")
-30

Asked: Reported Blood pressure change for "CCc1ccc(COC(=O)C2=C(C)NC(C)=C(C(=O)OCc3ccc(CC)cn3)C2C2=COCCO2)nc1" : what is it?
Given back: -34

Asked: Could you share which Blood pressure change value was measured for "CC1=C(C(=O)OCc2cccc(C)n2)C(C2=COCCO2)C(C(=O)OCc2cccc(C)n2)=C(C)N1" ?
Given back: -15

Asked: I have this molecule here, "CC1=C(C(=O)OCc2ccncc2)C(C2=C(C)SCCS2)C(C(=O)OCc2ccncc2)=C(C)N1" , and I need its recorded Blood pressure change.
Given back: -11

---

- Test system: rat rectum smooth muscle
- assay-details: Inhibitory effects on potassium contracture in rat rectum smooth muscle
- Format: cell-based
- study-conditions: 5 min, 10^-7 M, K contraction 5.6 to 56.0 mM, read-out: Inhibition ratio
- Procedure: Rat rectum (about 1.5 cm) was isolated and suspended in a Magnus tube. A Locke solution was employed as the nutrient solution, and a contraction of the intestinum rectum was caused by changing the potassium (K) concentration of this solution from 5.6 mmol (mM) to 56.0 mM. This contraction was a contraction through a membrane dependent Ca-channel mediated contraction based on depolarization by a K concentration change. The contraction was recorded by an FD-transducer and polygraph. […]
outcome-measure: inhibition at 0.1 µM (%)
Output spec: scalar in %, unitless text.

>>> obs_value("CC1=C(C(=O)OCCCc2cccnc2)C(C2=COCCO2)C(C(=O)OCCCc2cccnc2)=C(C)N1 [Compound 3]")
-4.2
>>> obs_value("COc1ccc(CCN(C)CCCC(C#N)(c2ccc(OC)c(OC)c2)C(C)C)cc1OC (centres unmarked) [Verapamil, reference compound]")
50.2
>>> obs_value("CC1=C(C(=O)OCc2cccc(C)n2)C(C2=COCCO2)C(C(=O)OCc2cccc(C)n2)=C(C)N1 [Compound 2]")
-2.1
>>> obs_value("CC1=C(C(=O)OCCc2ccccn2)C(C2=COCCO2)C(C(=O)OCCc2ccccn2)=C(C)N1 [Compound 4]")
5.2

Asked: Data request, read-out inhibition at 0.1 µM, for CC1=C(C(=O)OCc2ccccn2)C(C2=COCCO2)C(C(=O)OCc2ccccn2)=C(C)N1 [Compound 1]
Given back: 11.2
